Values were extracted from PubChem BioAssay (NCI).

PROCEDURE_TEXT: NCI Yeast Anticancer Drug Screen. Data for the bub3 strain (AID 167)
SETUP_CONDITIONS: S. cerevisiae bub3 mutant strain, at 50.0 µM, stronger effect = higher value
About 79,000 compounds went through this panel and 15% of them were active in at least one assay; those are over-represented in the sample as a whole.
Answer each item with its documented growth inhibition.
Numbers only, in %.

Answered cases to consult:
MOLECULE	UNIT_OF_MEASURE	growth inhibition
On1cnc(=S)c2[nH]cnc21	%	-6.65
O=[N+]([O-])c1cccc2nc3ccccc3c(NCCc3cccc[n+]3[O-])c12	%	53.2
CC(=O)C1=C(C)O/C(=C/c2cccc(Cl)c2)C1=O	%	-8
Cc1cc(C)c(N2C(=O)CC(Sc3ccccc3N)C2=O)c(C)c1 (stereo unspecified)	%	51.6
N#CSC1CCCCNC1=O (stereo unspecified)	%	79.7

Consider the following items and state reported growth inhibition for each.
1. Cc1cccc(/C=N/NC(=S)N(C)CCc2ccccn2)n1
2. Cn1c2nc3ccccc3c-2nc2ccccc21

91
98.2

Consider the following items and state reported growth inhibition for each.
1. Cc1cc(O)c2c(c1O)C(=O)C13C(=C2O)C(=O)C2C(O)C1C1C(O)C3C(=O)C3=C(O)c4c(O)cc(C)c(O)c4C(=O)C321 (stereo unspecified)
2. O=[N+]([O-])/C(C(Cl)=C(Cl)Cl)=C1/OCCS1
3. NC(=O)N1c2ccccc2C=Cc2ccccc21
4. CCC(=O)N(c1ccccc1)C(C)CN1CCC(O)(c2cccc(C(F)(F)F)c2)CC1 (stereo unspecified)

[77, 92.5, 15.3, 65.2]
